Biological target: T1, human IL-11 (AAH12506.1, Pro22-Leu199) (human, UniProt P20809 22-199)
T1 construct: The range Pro22-Leu199 counts on AAH12506.1; The Octet runs say only 'human IL-11'; also called hIL-11
T1 chain: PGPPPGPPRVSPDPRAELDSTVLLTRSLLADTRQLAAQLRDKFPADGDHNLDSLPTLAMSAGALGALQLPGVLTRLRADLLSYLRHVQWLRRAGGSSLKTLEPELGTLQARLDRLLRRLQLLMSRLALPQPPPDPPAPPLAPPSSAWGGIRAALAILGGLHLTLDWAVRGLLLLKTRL
Assay: BLI (Octet), antibody captured, human IL-11 in solution
Experimental: The affinity of the murine antibodies purified from the hybridoma supernatants was determined using an Octet QKe System instrument from Fortebio Inc. with an anti-mouse IgG Fc Capture biosensor to capture the Fc fragments of the antibodies, for which an anti-IL-11 antibody named “3C6-mFc” recombinantly expressed was used at the same concentration as a positive control. […] Binding signals were detected on the Octet QKe System instrument with Hy5C2, Hy8C8, Hy16B5, Hy18A10, and Hy18H10. […]
assay.readout: kon (M⁻¹ s⁻¹)
Expressed in M⁻¹ s⁻¹, but write only the number.

Worked cases, kon given:
INSERT INTO assay_data (binder, value_units, reported) VALUES
  ('hz8C8-VHm1-m11 + hz8C8-VLm7-m2 (antibody, human IgG1, kappa, V domains shown, human IgG1 constant regions) VH: EVQLVESGGGLVQPGGSLRLSCAASGFTFSSFGMHWVRQAPGKGLEWVAYITPGSNTIYYADTVKGRFTISRDNAKNSLYLQMNSLRAEDTAVYYCAREYYSYDEGPAYWGQGTLVTVSS VL: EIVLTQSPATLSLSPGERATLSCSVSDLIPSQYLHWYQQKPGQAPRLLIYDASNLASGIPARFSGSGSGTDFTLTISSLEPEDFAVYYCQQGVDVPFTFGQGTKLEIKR', 'M⁻¹ s⁻¹', 771000),
  ('hz8C8-VHm3 + hz8C8-VL (antibody, human IgG1, kappa, V domains shown, human IgG1 constant regions) VH: EVQLVESGGGLVQPGGSLRLSCAASGFTFSSFGMHWVRQAPGKGLEWVAYITPGSNTTYYADTVKGRFTISRDNAKNSLYLQMNSLRAEDTAVYYCAREYYSYDEGFAYWGQGTLVTVSS VL: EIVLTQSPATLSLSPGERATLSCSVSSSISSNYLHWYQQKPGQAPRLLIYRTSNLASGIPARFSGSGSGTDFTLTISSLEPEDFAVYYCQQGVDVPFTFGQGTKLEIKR', 'M⁻¹ s⁻¹', 453000),
  ('hz8C8-VHm1 + hz8C8-VLm4 (antibody, human IgG1, kappa, V domains shown, human IgG1 constant regions) VH: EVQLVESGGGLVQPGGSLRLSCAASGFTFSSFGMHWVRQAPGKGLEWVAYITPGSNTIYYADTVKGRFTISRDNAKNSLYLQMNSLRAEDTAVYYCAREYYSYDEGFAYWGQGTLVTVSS VL: EIVLTQSPATLSLSPGERATLSCSVSDLISSNYLHWYQQKPGQAPRLLIYRTSNLASGIPARFSGSGSGTDFTLTISSLEPEDFAVYYCQQGVDVPFTFGQGTKLEIKR', 'M⁻¹ s⁻¹', 874000),
  ('hz8C8-VHm1-m3 + hz8C8-VLm7-m4 (antibody, human IgG1, kappa, V domains shown, human IgG1 constant regions) VH: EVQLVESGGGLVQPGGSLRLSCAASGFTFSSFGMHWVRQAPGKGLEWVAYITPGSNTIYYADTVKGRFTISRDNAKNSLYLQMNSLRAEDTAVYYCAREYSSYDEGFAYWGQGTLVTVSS VL: EIVLTQSPATLSLSPGERATLSCSVSDLIPSQYLHWYQQKPGQAPRLLIYRTSNRASGIPARFSGSGSGTDFTLTISSLEPEDFAVYYCQQGVDVPFTFGQGTKLEIKR', 'M⁻¹ s⁻¹', 901000);

Specify kon for hz8C8-VHm5 + hz8C8-VLm7 (antibody, human IgG1, kappa, V domains shown, human IgG1 constant regions) VH: EVQLVESGGGLVQPGGSLRLSCAASGFTFSSFGMSWVRQAPGKGLEWVAYITPGSNTIYYADTVKGRFTISRDNAKNSLYLQMNSLRAEDTAVYYCAREYYSYDEGFAYWGQGTLVTVSS VL: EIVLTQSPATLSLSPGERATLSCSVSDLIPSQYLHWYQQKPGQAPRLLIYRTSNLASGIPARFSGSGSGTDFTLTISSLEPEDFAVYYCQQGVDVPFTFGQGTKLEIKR and stop.
920000
